target: ALK2ca T283S (constitutively active ALK2) (Homo sapiens, UniProt Q04771, Q207D/T283S); assay: BRE2-luc luciferase reporter in NIH-3T3 cells expressing ALK2ca T283S
Sequence (Q04771 21-509 Q207D/T283S): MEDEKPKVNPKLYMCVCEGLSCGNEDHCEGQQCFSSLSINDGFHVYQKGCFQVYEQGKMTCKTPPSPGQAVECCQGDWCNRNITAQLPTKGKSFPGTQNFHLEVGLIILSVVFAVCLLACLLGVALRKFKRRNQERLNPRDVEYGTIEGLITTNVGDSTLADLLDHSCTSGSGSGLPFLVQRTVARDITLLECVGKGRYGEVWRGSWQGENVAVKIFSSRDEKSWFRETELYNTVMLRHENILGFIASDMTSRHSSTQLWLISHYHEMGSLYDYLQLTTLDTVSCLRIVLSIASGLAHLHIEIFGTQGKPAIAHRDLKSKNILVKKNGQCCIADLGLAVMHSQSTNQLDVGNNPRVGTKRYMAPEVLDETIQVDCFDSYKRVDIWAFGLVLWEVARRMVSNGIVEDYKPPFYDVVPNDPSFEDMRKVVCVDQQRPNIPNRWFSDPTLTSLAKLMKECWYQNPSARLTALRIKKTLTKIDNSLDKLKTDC
pEC50: −log10 of the molar value.

{"Compound": "NC(=O)c1ccc(-c2nc(-c3ccc4c(c3)OCO4)c(-c3ccccn3)[nH]2)cc1 [SB431542]", "pEC50": 5.60}

The values you see were collected from paper PMC4490768.
